Here, each record is paired with measured GI50 data.
test system: SKOV-3; assay: SRB colorimetric cell growth inhibition assay, SKOV-3; assay type: cell-based; details: Homo sapiens, SK-OV-3, SKOV-3; GI=growth inhibition; read-out: GI50 SKOV-3
// units = nM; emit number, no label

{"compound": "COc1cc(-c2c3c4cc(OC)c(OC(=O)[C@@H](N)C(C)C)cc4oc(=O)c3n3ccc4cc(OC(=O)[C@@H](N)C(C)C)c(OC)cc4c23)ccc1OC(=O)[C@@H](N)C(C)C", "GI50 (nM)": 39.2}
{"compound": "COc1cc2c(cc1OC)-c1c(-c3ccc(OC(=O)[C@H](C)NC(=O)OC(C)(C)C)c(OC)c3)c3c4cc(OC)c(OC(=O)[C@H](C)NC(=O)OC(C)(C)C)cc4oc(=O)c3n1CC2", "GI50 (nM)": 849}
{"compound": "COc1cc(-c2c3c4cc(OC)c(OC(=O)[C@@H]5CCCN5)cc4oc(=O)c3n3ccc4c(OC(=O)[C@@H]5CCCN5)c(OC)c(OC)cc4c23)ccc1OC(=O)[C@@H]1CCCN1", "GI50 (nM)": 348}
{"compound": "COc1cc(-c2c3c4cc(OC)c(O)cc4oc(=O)c3n3ccc4cc(O)c(OC)cc4c23)ccc1O [Compound 3, lamellarin D, reference compound]", "GI50 (nM)": 53.7}

Entry "COc1cc(-c2c3n(c4c(=O)oc5cc(OC(=O)[C@@H](N)C(C)C)c(OC)cc5c24)CCc2cc(OC(=O)[C@@H](N)C(C)C)c(OC)cc2-3)ccc1OC(=O)[C@@H](N)C(C)C" ; assay system SKOV-3; GI50 recorded at 1620

Entry "COc1cc(-c2c3c4cc(OC)c(OC(=O)[C@@H](N)Cc5ccccc5)cc4oc(=O)c3n3ccc4c(OC(=O)[C@@H](N)Cc5ccccc5)c(OC)c(OC)cc4c23)ccc1OC(=O)[C@@H](N)Cc1ccccc1" ; assay system SKOV-3; GI50 recorded at 524

Entry "COc1cc(-c2c3n(c4c(=O)oc5cc(OC(=O)[C@H](Cc6c[nH]c7ccccc67)NC(=O)OC(C)(C)C)c(OC)cc5c24)CCc2cc(OC(=O)[C@H](Cc4c[nH]c5ccccc45)NC(=O)OC(C)(C)C)c(OC)cc2-3)ccc1OC(=O)[C@H](Cc1c[nH]c2ccccc12)NC(=O)OC(C)(C)C" ; assay system SKOV-3; GI50 recorded at 1790

Entry "COc1cc(-c2c3c4cc(OC)c(O)cc4oc(=O)c3n3ccc4cc(OC)c(OC)cc4c23)ccc1O" ; assay system SKOV-3; GI50 recorded at 874

Entry "COc1cc(-c2c3c4cc(OC)c(OC(=O)[C@@H](N)C(C)C)cc4oc(=O)c3n3ccc4c(OC(=O)[C@@H](N)C(C)C)c(OC)c(OC)cc4c23)ccc1OC(=O)[C@@H](N)C(C)C" ; assay system SKOV-3; GI50 recorded at 113

Entry "COc1cc(-c2c3c4cc(OC)c(OC(=O)[C@@H]5CCCN5)cc4oc(=O)c3n3ccc4cc(OC(=O)[C@@H]5CCCN5)c(OC)cc4c23)ccc1OC(=O)[C@@H]1CCCN1" ; assay system SKOV-3; GI50 recorded at 39.1

* * *

Here, each record is paired with measured log10 of GI50 data.
test system: HT-29; experiment: SRB colorimetric cell growth inhibition assay, HT-29; assay type: cell-based; conditions: Homo sapiens, HT-29, HT-29; GI=growth inhibition; read-out: GI50 HT-29
Record value = log10 of GI50 given in µM.

{"compound": "COc1cc(-c2c3c4cc(OC)c(OC(C)C)cc4oc(=O)c3n3ccc4c(OC(C)C)c(OC)c(OC)cc4c23)ccc1OC(C)C [Compound 27]", "log10 of GI50": -0.84}

The reported log10 of GI50 of the compound COc1cc2c(cc1O)oc(=O)c1c2c(-c2ccc(OC)c(OC)c2)c2c3cc(OC)c(O)cc3ccn21 [Compound 233] was 1.29

The reported log10 of GI50 of the compound COc1cc(-c2c3c4cc(OC)c(O)cc4oc(=O)c3n3ccc4c([N+](=O)[O-])cccc4c23)ccc1O [Compound 53] was 0.34

The reported log10 of GI50 of the compound COc1cc(-c2c3c4cc(OC)c(OC(=O)[C@@H](N)C(C)C)cc4oc(=O)c3n3ccc4cc(OC(=O)[C@@H](N)C(C)C)c(OC)cc4c23)ccc1OC(=O)[C@@H](N)C(C)C [Compound 36] was 0.18

The reported log10 of GI50 of the compound COc1cc(-c2c3c4cc(OC)c(OC(=O)[C@@H](N)CC(C)C)cc4oc(=O)c3n3ccc4cc(OC(=O)[C@@H](N)CC(C)C)c(OC)cc4c23)ccc1OC(=O)[C@@H](N)CC(C)C [Compound 181] was 0.49
